These measurements were taken from paper PMC5540273.

- Test system: TNK1
- CONDITION_SET: concentration: 1 μM,replicates: in singlicate; n = 1;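 note: KINOMEscan kinase panel screen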
Assignment: determine reported %Inh for the given molecules.
Response body: numeric value in %, unit text excluded.

// recorded %Inh for Cc1nnc(-c2ccc3occ(-c4ccc(S(C)=O)cc4)c3n2)o1 (centres unmarked) : 0

%Inh reported for this molecule C[C@@H](Oc1cc(-n2cnc3cc(-c4cnn(C)c4)ccc32)sc1C(N)=O)c1ccccc1Cl : 59

# molecule Cl.Nc1n[nH]c2cc(-c3ccccn3)ccc12 ; its %Inh = 0

Item: COc1cc2nccc(Nc3ccc(Oc4ccccc4)cc3)c2cc1OC.Cl | %Inh: 92.8

Entry CC(C)S(=O)(=O)N1CCN(Cc2ccc3c(c2)nc(NC(=O)c2ccsc2)n3C[C@H](O)c2ccccc2)CC1 — recorded %Inh = 79

* * *

Answer each item with its documented %Inh.
- System: CSNK1G2
- CONDITION_SET: concentration: 1 μM,replicates: in singlicate; n = 1
A number alone suffices; assume %.

get_value(item= Cl.c1ccc(Oc2ccc(Nc3ccnc4cc(-c5ccc(CN6CCNCC6)o5)ccc34)cc2)nc1 , readout=%Inh) returns 0

compound Cc1ccc2c(-c3ccnc(Nc4ccc(C(F)(F)F)cc4)n3)cnn2n1 , %Inh observed: 14

Form field %Inh, entry COc1ccc(Nc2nccc(N3CCC(NC(=O)c4cccc(C#N)c4)C3)n2)cc1 (stereo not drawn) : 0

%Inh measured on CCn1c(-c2nonc2N)nc2cncc(CNC3CCNCC3)c21.Cl = 0

%Inh reported for this compound Cl.Nc1n[nH]c2cc(-c3ccccn3)ccc12 : 0

# compound Cn1ccc2ncnc(Oc3ccc(NC(=O)Nc4cnn(C(C)(C)C)c4)c(Cl)c3)c21 ; its %Inh = 32

Entry under test: O=c1[nH]cc(-c2ccc(O)cc2)c2sc(-c3ccncc3)cc12 . Its %Inh was 0

Measured %Inh, Cn1ccc2ncnc(Oc3ccc(NC(=O)Nc4ccnc(C(F)(F)F)c4)c(Cl)c3)c21 : 9

Short answer for C[C@@H](Oc1cc(-n2cnc3cc(-c4ccncc4)ccc32)sc1C(N)=O)c1ccccc1Cl : %Inh was 0

%Inh measured on O=C(Nc1cccc(C(F)(F)F)c1)c1cccc(Oc2ccc3nccn3n2)c1 = 10

For reference, reported %Inh for CCN1CCN(CCCC(=O)Nc2n[nH]c3nc(-c4ccc(O)cc4)c(Br)cc23)CC1 stands at 0

Record summary for C[C@@H]1CNc2c(sc3ccc4nc(-c5ccncc5)ccc4c23)C(=O)N1 : reported %Inh = 15

The recorded %Inh for Cc1ccc(C(=O)Nc2ccc(Oc3ccc4nc(NC(=O)C5CC5)cn4c3)c(F)c2)c(=O)n1-c1ccccc1 is 0

What the record says about COc1cccc(OC)c1C(=O)Nc1cccc(-c2nn3ccccc3c2-c2ccnc(Nc3cccc(F)c3)n2)c1 : %Inh is 17

%Inh reading for Cn1ccc2ncnc(Oc3ccc(NC(=O)Nc4cncc(C(F)(F)F)c4)c(Cl)c3)c21 : 5

* * *

- System: RSK1(Kin.Dom.1-N-terminal)
- Construct: gene RPS6KA1
- CONDITION_SET: concentration: 1 μM,replicates: in singlicate; n = 1
Please provide measured %Inh for the entries that follow.
Please give a number only; it is taken to be in %.

Looking up Cc1ccn2nc(-c3ccc(F)cc3)c(-c3ccncc3)c2c1.Cl [GW457859] , I see its %Inh listed as 0

Reported %Inh of C[C@@H](Oc1cc(-n2cnc3cc(-c4cnn(C)c4)ccc32)sc1C(N)=O)c1ccccc1Cl [GSK580432] : 45

CS(=O)(=O)Nc1ccc(-c2ccnc3[nH]ccc23)cc1 [GSK993273] yielded %Inh of 17

// %Inh lookup, compound = Nc1nccc(-c2ccc3c(N)n[nH]c3c2)n1 [GSK1034945] , result: 4

The reported %Inh of the compound Cl.Nc1n[nH]c2cc(-c3ccccn3)ccc12 [GSK2189892] was 29

The compound listed as O=C(Nc1ccc(Oc2ccc3nc(NC(=O)C4CC4)cn3n2)c(F)c1)c1cccn(-c2ccccc2)c1=O has a reported %Inh of 0

CNC(=O)c1ccccc1Nc1nc(Nc2cccc(CS(C)(=O)=O)c2)ncc1C.O=CO [GSK1520489] yielded %Inh of 96.5

Lab note: CCNCC(Cc1ccccc1)NC(=O)c1cc(Br)c(-c2ccnc3[nH]ccc23)s1.Cl.Cl (stereo not drawn) [GSK1383280] gave %Inh of 21

Lab note: measured %Inh of Cc1n[nH]c2cc(Nc3ccnc(Nc4cccc(CN5CCOCC5)c4)n3)ccc12 [GW682569] was 3

* * *

- System: YANK2
- Construct: gene STK32B
- CONDITION_SET: concentration: 1 μM,replicates: in singlicate; n = 1
READOUT_KIND: %Inh (%)
Field format: number, assumed %, no unit text.

For this compound ( Cc1cccc(-c2nc(Nc3ccncc3)c3sccc3n2)n1 [GW869641] ), measured %Inh is 14

Notebook: Cn1ccc2ncnc(Oc3ccc(NC(=O)Nc4ccnc(C(F)(F)F)c4)c(Cl)c3)c21 , %Inh read as 0

Entry CCCC(=O)Nc1n[nH]c2ncccc12 [SB-601436] , %Inh reported as 0

Short answer for Cn1ccc2ncnc(Oc3ccc(NC(=O)Nc4cncc(C(F)(F)F)c4)c(Cl)c3)c21 : %Inh was 2

The compound listed as Cl.Cl.NC[C@H](CC1CCCCC1)NC(=O)c1ccc(-c2ccnc3[nH]ccc23)s1 [GSK1581428] has a reported %Inh of 43

Lab note: measured %Inh of Cl.c1ccc(Oc2ccc(Nc3ccnc4cc(-c5ccc(CN6CCNCC6)o5)ccc34)cc2)nc1 [GW567142] was 0

* * *

- Tested on: RIOK1
- CONDITION_SET: concentration: 1 μM,replicates: in singlicate; n = 1
Answer each item with its documented %Inh.
Entry rule: numbers only, all in %.

For reference, reported %Inh for C[C@@H]1CNc2c(sc3ccc4nc(-c5ccc(O)cc5)ccc4c23)C(=O)N1 stands at 0

// recorded %Inh for O=C(NCC1CC1)c1ccc(-c2cc(C(=O)NC3CC3)ccc2F)cc1 : 1

Kindly note the recorded %Inh for COC(=O)c1cccc(NC(=O)NC2CCN(c3ccnc(NCc4ccc(F)cc4)n3)CC2)c1 , which is 22

Entry CN(c1ccc2c(c1)nc(NCc1ccc(F)cc1)n2C)c1ccnc(Nc2ccc(CS(C)(=O)=O)cc2)n1.Cl , %Inh reported as 1

The reported %Inh of the compound CCn1c(-c2nonc2N)nc2cncc(CNC3CCNCC3)c21.Cl was 30

The recorded %Inh for O=c1[nH]cc(-c2ccc(O)cc2)c2sc(-c3ccncc3)cc12 is 1

For record Cc1cccc(-c2nc(Nc3ccncc3)c3sccc3n2)n1 the listed %Inh is 35

Please fill in: %Inh reported for CCOC(=O)N1CCC(n2cnc(-c3ccc(F)cc3)c2-c2ccnc(N)n2)CC1 = 51

Query O=C(NOCC1CC1)c1cc(Br)c(F)c(F)c1Nc1ccc(I)cc1Cl yields %Inh of 0

Short answer for CS(=O)(=O)Nc1ccc(-c2ccnc3[nH]ccc23)cc1 : %Inh was 98.6

For reference, reported %Inh for Cn1ccc2ncnc(Oc3ccc(NC(=O)Nc4cccc(C(F)(F)F)c4)c(F)c3)c21 stands at 0

Kindly note the recorded %Inh for Cl.Cl.NC[C@H](CC1CCCCC1)NC(=O)c1ccc(-c2ccnc3[nH]ccc23)s1 , which is 100

For record COc1cccc(C2=C(Nc3cccc(Cl)c3)C(=O)NC2=O)c1 the listed %Inh is 41

Kindly note the recorded %Inh for O=C(Nc1ccc(Oc2ccc3nc(NC(=O)C4CC4)cn3n2)c(F)c1)c1cccn(-c2ccccc2)c1=O , which is 13

Record C[C@@H](Oc1cc(-n2cnc3cc(-c4ccncc4)ccc32)sc1C(N)=O)c1ccccc1Cl , field %Inh: 94.1

%Inh reading for N#Cc1cccc(C(=O)NC2CCN(c3ccnc(Nc4ccc(F)cc4)n3)C2)c1 (stereo not shown) : 24

Please fill in: %Inh reported for CC(=O)c1c(-c2ccncc2)[nH]c(-c2ccncc2)c1C = 17

Noted for Cc1ccn2nc(-c3ccc(F)cc3)c(-c3ccncc3)c2c1.Cl : its %Inh reads 23

GET /value?item= NC(=O)Nc1sc(-c2ccc(F)cc2)cc1C(N)=O &field=%Inh returns 99.4

* * *

- Tested on: RPS6KA5(Kin.Dom.1-N-terminal)
- CONDITION_SET: concentration: 1 μM,replicates: in singlicate; n = 1
READOUT_KIND: %Inh (%)
Field format: number, assumed %, no unit text.

Just so you know, measured %Inh for Cc1cccc2c(-c3ccncc3)c(-c3ccc(F)cc3)nn12.Cl came out at 0

# %Inh of CNC(=O)c1ccccc1Nc1nc(Nc2cccc(CS(C)(=O)=O)c2)ncc1C.O=CO = 43

The compound listed as Cn1ccc2ncnc(Oc3ccc(NC(=O)Nc4cccc(C(F)(F)F)c4)c(Cl)c3)c21 shows %Inh equal to 0
